Measured composite z-score, listed per entry for reference.
- TESTED_SYSTEM: Follistatin-related protein 3 (Homo sapiens) (UniProt O95633)
- Sequence (O95633 whole entry, looked up): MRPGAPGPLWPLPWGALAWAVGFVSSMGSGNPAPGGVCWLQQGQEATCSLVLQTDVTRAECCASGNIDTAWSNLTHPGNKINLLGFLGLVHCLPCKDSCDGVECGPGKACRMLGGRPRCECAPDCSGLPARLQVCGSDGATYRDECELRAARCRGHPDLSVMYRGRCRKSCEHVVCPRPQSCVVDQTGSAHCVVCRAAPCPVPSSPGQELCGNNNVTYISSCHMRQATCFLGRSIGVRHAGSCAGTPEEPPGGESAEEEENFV
- METHOD_SUMMARY: FSTL3 binders on small-molecule microarrays, primary screen, biochemical, small-molecule microarray, 635 nm fluorescence (AID 1105);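 note: score merges emission near 667 nm and signal to noise per printed spot across three slides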
- ASSAY_CONDITIONS: FSTL3 binding, higher = more signal
// no unit string in output, number only

- MOLECULE: "COC(=O)c1c2oc(c1C(=O)OC)C(=O)N1CCC[C@H]1Cn1nncc1CN(Cc1ccccc1)C(=O)N[C@H](CO)CC2"
  composite z-score: -0.0361

Query :: What measured composite z-score goes with "Cc1ccc([C@H]2C(C(=O)O)=C[C@@H](C(C)(C)C)N2S(=O)(=O)c2ccc(C)cc2)cc1" ?
Result :: 1.17
